// data source = PubChem BioAssay (NCI)

tested on: OVCAR-5 ovarian; assay: NCI-60 one-dose screen, 48 h; conditions: 10 µM unless noted
Compounds without any hit were thinned out: in the full panel of roughly 83,000, 20% have a hit. Calls of active or inactive are those of the source. Rule for the calls: active = growth percent below 10; inactive = the rest.
Outcome codes: t = active, f = inactive

compound="C=CC1(C)C(O[Si](C)(C)C(C)(C)C)CC2C3OC(=O)NC31c1cccc3c1[C@H](C(=O)N3C)C2(C)C (some centres undefined)" assigned_category=f
compound=N#Cc1nc2c(S(=O)(=O)c3ccccc3)c(N)n(Cc3cccnc3)c2nc1C#N assigned_category=f
compound=CCOC(=O)c1c(NC(=O)CSc2n[nH]c3nc4ccccc4n23)sc(CC)c1C assigned_category=f
compound="CC(CN)[C@@H]1CC[C@]2(CO)CC[C@]3(C)[C@H](CC[C@@H]4[C@@]5(C)CCC(N)C(C)(C)[C@@H]5CC[C@]43C)[C@@H]12 (some centres undefined)" assigned_category=t
compound=COc1ccc(/C=C/C(=O)c2ccc(Nc3nc(Nc4ccc(F)cc4)nc(Nc4ccc(Cl)cc4)n3)cc2)cc1 assigned_category=f
compound=C#Cc1cccc(Oc2ccc(NC(=O)CCl)cc2)c1 assigned_category=f
compound="Cc1c(N2CN3C[C@H](C)N4CN(c5c(C)n(C)n(-c6ccccc6)c5=O)CN5C[C@@H](C)N(C2)C3C54)c(=O)n(-c2ccccc2)n1C (some centres undefined)" assigned_category=f
compound=O=C(CBr)CN1C(=O)c2ccccc2C1=O assigned_category=f
compound=Cn1cc(/C=C2/C(=O)Nc3ccccc32)c2ccccc21 assigned_category=f
